# Measurement Target: T1, LNX2_2, Q8N448
# T1 sequence (Q8N448 334-432, limits assumed, looked up): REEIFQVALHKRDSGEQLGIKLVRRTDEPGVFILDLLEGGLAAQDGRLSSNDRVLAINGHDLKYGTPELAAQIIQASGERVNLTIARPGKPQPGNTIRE
# Assay Text: holdup assay
# Design: key: below the threshold = too weak to quantify, mostly under pKd 3.1 to 4
# Setup Conditions: plain residues with an end cap or a label only (N-terminal biotin on a linker: ado-ado)
Test Readout: pKd

Observe how each entry below is paired with its result.
>>> print(df.to_string())
                       binder               result
0  PSVYSRSQYV [CLDN8, P56748]                 4.66
1  FVFESRKEIL [TBPL1, P62380]  below the threshold
2    SQPLLVHDDV [KIT, P10721]  below the threshold
3   SQDPKKPSRV [CBY2, Q8NA61]  below the threshold

Reported pKd for MLPANYVEAI [NEB, P20929] : what is it?
below the threshold
